Target: T1, human CD39 protein (recombinant) (human, UniProt P49961 38-478, limits assumed)
T1 sequence: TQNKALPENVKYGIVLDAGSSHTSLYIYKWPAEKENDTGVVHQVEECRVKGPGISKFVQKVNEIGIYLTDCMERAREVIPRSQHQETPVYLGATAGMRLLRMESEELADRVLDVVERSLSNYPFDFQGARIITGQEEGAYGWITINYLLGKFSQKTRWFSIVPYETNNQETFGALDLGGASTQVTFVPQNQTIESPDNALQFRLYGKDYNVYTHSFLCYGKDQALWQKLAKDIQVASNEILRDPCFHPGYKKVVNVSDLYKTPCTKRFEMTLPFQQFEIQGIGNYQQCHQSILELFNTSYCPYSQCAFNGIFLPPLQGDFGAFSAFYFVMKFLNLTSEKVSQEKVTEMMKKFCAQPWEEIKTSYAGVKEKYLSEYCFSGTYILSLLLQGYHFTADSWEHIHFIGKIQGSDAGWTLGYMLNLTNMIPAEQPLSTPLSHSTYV
Assay: cell-based or functional assay
REPORTED ENDPOINT: ATPase inhibition, inhibition % (%)

BINDER	REPORTED ENDPOINT	RECORDED MEASUREMENT
HuEM0004-38-7 (antibody, human IgG1, kappa, L234A L235A, V domains shown, humanized mAb638, human IgG1/kappa) VH: EVQLVQSGAEVKKPGASVKVSCKASGYTFTSFWMHWVRQAPGQGLEWMGNINPRNGATKYNEKFRSRVTMTADKSISTAYMELSRLRSDDTAVYYCAREDYDEIYYAMDSWGQGTTVTVSS VL: ENVLTQSPATLSLSPGERATLSCSASSSVIYMYWFQQKPGQAPRLLIYDTSNLASGIPARFSGSGSGTDYTLTISSLEPEDFAVYYCQQWSTYPLTFGQGTKLEIKR	ATPase inhibition, inhibition %	71.4
HuEM0004-38-10 (antibody, human IgG1, kappa, L234A L235A, V domains shown, humanized mAb638, human IgG1/kappa) VH: EVQLVQSGAEVKKPGASVKVSCKASGYTFTSFWMHWVRQAPGQGLEWIGNINPRNGATKYNEKFRSKVTLTADKSISTAYMELSRLRSDDTAVYYCAREDYDEIYYAMDSWGQGTTVTVSS VL: ENVLTQSPATLSLSPGERATLSCSASSSVIYMYWFQQKPGQAPRLLIYDTSNLASGIPARFSGSGSGTDYTLTISSLEPEDFAVYYCQQWSTYPLTFGQGTKLEIKR	ATPase inhibition, inhibition %	71.5
HuEM0004-38-14 (antibody, human IgG1, kappa, L234A L235A, V domains shown, humanized mAb638, human IgG1/kappa) VH: EVQLVQSGAEVKKPGASVKVSCKASGYTFTSFWMHWVRQAPGQGLEWIGNINPRNGATKYNEKFRSRVTLTADKSISTAYMELSRLRSDDTAVYYCAREDYDEIYYAMDSWGQGTTVTVSS VL: ENVLTQSPATLSLSPGERATLSCSASSSVIYMYWFQQKPGQSPRVLIYDTSNLASGIPARFSGSGSGTDYTLTISSLEPEDFAVYYCQQWSTYPLTFGQGTKLEIKR	ATPase inhibition, inhibition %	98.9
EM0004-38c2 (antibody, human IgG1, kappa, L234A L235A, name in Kabat numbering, V domains shown, chimeric mAb638 variant) VH: QVQLQQPGTELVKPGASVKLSCKASGYTFTSFWMHWVKQRPGQGLEWIGNINPRNAATKYNEKFRSKVTLTADKTSSTAYMHLSSLTSEDSAVYYCAREDYDEIYYAMDSWGQGTSVTVSS VL: QNVLTQSPAIMSASPGEKVTMTCSASSSVIYMYWFQQKPGSSPRVLIYDTSNLASGVPARFSGSGSGTSYSLTISRMEAEDAATYYCQQWSTYPLTFGAGTKLELKR	ATPase inhibition, inhibition %	103
HuEM0004-38-19 (antibody, human IgG1, kappa, L234A L235A, V domains shown, humanized mAb638, human IgG1/kappa) VH: EVQLVQSGAEVKKPGASVKVSCKASGYTFTSFWMHWVRQAPGQGLEWIGNINPRNGATKYNEKFRSRVTLTADKSISTAYMELSRLRSDDTAVYYCAREDYDEIYYAMDSWGQGTTVTVSS VL: ENVLTQSPATLSLSPGERATLSCSASSSVIYMYWFQQKPGQSPRVLIYDTSNLASGVPARFSGSGSGTDYTLTISSLEPEDFAVYYCQQWSTYPLTFGQGTKLEIKR	ATPase inhibition, inhibition %	99.2

Numbers sourced from patent US20220389111A1.
